Reference source for all entries: patent US20240417412A1

# measured_target: KRAS G12D (Homo sapiens, UniProt P01116, G12D)
# Sequence (P01116 1-188 isoform P01116-2 G12D): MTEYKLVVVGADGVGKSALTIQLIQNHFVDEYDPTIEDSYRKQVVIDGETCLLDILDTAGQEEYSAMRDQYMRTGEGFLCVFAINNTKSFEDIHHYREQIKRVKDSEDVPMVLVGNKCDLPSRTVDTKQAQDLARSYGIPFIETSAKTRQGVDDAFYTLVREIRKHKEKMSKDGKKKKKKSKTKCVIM
# measurement_notes: KRAS G12D TR-FRET Assay
# particulars: His-tagged KRAS G12D, biotinylated KRPep-2d, read-out: KRAS G12D Binding IC50
Provide the reported log10 IC50 of each item.
Give log10 of IC50, with IC50 taken in nM.

[Q] Query log10 IC50 on KRAS G12D (Homo sapiens, UniProt P01116, G12D) for CCc1c(F)ccc2cccc(-c3ncc4c(N5CCCC6(CNC6=O)C5)nc(OC[C@@]56CCCN5C[C@H](F)C6)nc4c3F)c12 (stereo partly shown) [Example 32]
[A] 0.60

[Q] Give recorded log10 IC50 with KRAS G12D (Homo sapiens, UniProt P01116, G12D) for the following molecule: C#Cc1c(F)ccc2cc(O)cc(-c3ncc4c(N5CCCC6(CCO6)C5)nc(OC[C@@]56CCCN5C[C@H](F)C6)nc4c3F)c12 (single isomer, unassigned) [Example 25]
[A] 0.00

[Q] Please state recorded log10 IC50 (tested on KRAS G12D (Homo sapiens, UniProt P01116, G12D)) of CCc1c(F)ccc2cccc(-c3ncc4c(N5CCCC6(CNC(=O)O6)C5)nc(OC[C@@]56CCCN5C[C@H](F)C6)nc4c3F)c12 (single isomer, unassigned) [Example 64]
[A] 2.48

[Q] Hi! What's the reported log10 IC50 for CCc1c(F)ccc2cc(O)cc(-c3ncc4c(N5CCCC6(CCS6(=O)=O)C5)nc(OC[C@@]56CCCN5C[C@H](F)C6)nc4c3F)c12 (stereo partly shown) [Example 43] on KRAS G12D (Homo sapiens, UniProt P01116, G12D)?
[A] 1.08

[Q] Provide the documented log10 IC50 with KRAS G12D (Homo sapiens, UniProt P01116, G12D) as the system for CCc1c(F)ccc2cc(O)cc(-c3ncc4c(N5CCCC6(CCC6O)C5)nc(OC[C@@]56CCCN5C[C@H](F)C6)nc4c3F)c12 (single isomer, unassigned) [Example 48]
[A] 1.56

[Q] // fetch KRAS G12D (Homo sapiens, UniProt P01116, G12D) log10 IC50 for CCc1c(F)ccc2cc(O)cc(-c3ncc4c(N5CCOCC6(COC6)C5)nc(OCC56CCCN5C[C@H](F)C6)nc4c3F)c12 (stereo in doubt) [Example 50]
[A] 1.75

[Q] API: value(readout= log10 IC50, system= KRAS G12D (Homo sapiens, UniProt P01116, G12D), query= CCc1c(F)ccc2cc(O)cc(-c3ncc4c(N5CCCC6(CNC6)C5)nc(OC[C@@]56CCCN5C[C@H](F)C6)nc4c3F)c12 [Example 38] )
[A] 1.49

[Q] What value of log10 IC50 on KRAS G12D (Homo sapiens, UniProt P01116, G12D) does CCc1c(F)ccc2cc(O)cc(-c3ncc4c(N5CC(C)(O)CC6(CC6)C5)nc(OC[C@@]56CCCN5C[C@H](F)C6)nc4c3F)c12 (stereo partly shown) [Example 19] have?
[A] 0.70

[Q] Field: log10 IC50 (KRAS G12D (Homo sapiens, UniProt P01116, G12D)). Entry: CCc1c(F)ccc2cc(O)cc(-c3ncc4c(N5CCCC6(CNC6=O)C5)nc(OC[C@@]56CCCN5C[C@H](F)C6)nc4c3F)c12 (single isomer, unassigned) [Example 45]
[A] 0.48

[Q] KRAS G12D (Homo sapiens, UniProt P01116, G12D) / log10 IC50 / CCc1c(F)ccc2cc(O)cc(-c3ncc4c(N5CC(O)CC6(CC6)C5)nc(OC[C@@]56CCCN5C[C@H](F)C6)nc4c3F)c12 (single isomer, unassigned) [Example 4] : value?
[A] 0.30

[Q] // map CCc1c(F)ccc2cc(O)cc(-c3ncc4c(N5CCCC6(CNC(=O)C6)C5)nc(OC[C@@]56CCCN5C[C@H](F)C6)nc4c3F)c12 (single isomer, unassigned) [Example 7] to recorded log10 IC50 (system: KRAS G12D (Homo sapiens, UniProt P01116, G12D))
[A] 0.48

[Q] Field: log10 IC50 (KRAS G12D (Homo sapiens, UniProt P01116, G12D)). Entry: CCc1c(F)ccc2cc(O)cc(-c3ncc4c(N5CCCC6(C5)CC(C)(O)C6)nc(OC[C@@]56CCCN5C[C@H](F)C6)nc4c3F)c12 (single isomer, unassigned) [Example 57]
[A] 0.78

[Q] Request: log10 IC50, test system KRAS G12D (Homo sapiens, UniProt P01116, G12D), entry Oc1cc(-c2ncc3c(N4CCC[C@]5(CCO5)C4)nc(OC[C@@]45CCCN4C[C@H](F)C5)nc3c2F)c2c(Cl)c(F)ccc2c1 (single isomer, unassigned) [Example 58]
[A] 0.00

[Q] Under KRAS G12D (Homo sapiens, UniProt P01116, G12D): log10 IC50 value of CCc1c(F)ccc2cc(O)cc(-c3ncc4c(N5CCOC6(CCC6)C5)nc(OC[C@@]56CCCN5C[C@H](F)C6)nc4c3F)c12 [Example 31] ?
[A] 1.43

[Q] So what log10 IC50 did CCc1c(F)ccc2cc(O)cc(-c3ncc4c(N5CCCC6(COC(=O)N6)C5)nc(OC[C@@]56CCCN5C[C@H](F)C6)nc4c3F)c12 (stereo partly shown) [Example 40] get with KRAS G12D (Homo sapiens, UniProt P01116, G12D)?
[A] 0.48

[Q] Request: log10 IC50, test system KRAS G12D (Homo sapiens, UniProt P01116, G12D), entry CCc1c(F)ccc2cc(O)cc(-c3ncc4c(N5CCOCC6(CC(=O)N6)C5)nc(OC[C@@]56CCCN5C[C@H](F)C6)nc4c3F)c12 (stereo partly shown) [Example 53]
[A] 0.30

[Q] Notebook: pull reported log10 IC50 for KRAS G12D (Homo sapiens, UniProt P01116, G12D), entry CCc1c(F)ccc2cc(O)cc(-c3ncc4c(N5CCCC6(COC(=O)O6)C5)nc(OC[C@@]56CCCN5C[C@H](F)C6)nc4c3F)c12 (single isomer, unassigned) [Example 68]
[A] 1.36

[Q] Lab note: need log10 IC50 for CCc1c(F)ccc2cc(O)cc(-c3ncc4c(N5CCCC6(CNC(=O)C6)C5)nc(OC[C@@]56CCCN5C[C@H](F)C6)nc4c3F)c12 (single isomer, unassigned) [Example 8] on KRAS G12D (Homo sapiens, UniProt P01116, G12D), anyone have it?
[A] 0.30

[Q] Find the measured log10 IC50: item CCc1c(F)ccc2cc(O)cc(-c3ncc4c(N5CCCC6(CCCO6)C5)nc(OC[C@@]56CCCN5C[C@H](F)C6)nc4c3F)c12 (stereo partly shown) [Example 27] , target or system KRAS G12D (Homo sapiens, UniProt P01116, G12D).
[A] 0.60

[Q] Provide value of log10 IC50 for this record tested with KRAS G12D (Homo sapiens, UniProt P01116, G12D): Oc1cc(-c2ncc3c(N4CCCC5(CCO5)C4)nc(OC[C@@]45CCCN4C[C@H](F)C5)nc3c2F)c2c(F)c(F)ccc2c1 (single isomer, unassigned) [Example 24]
[A] 0.00

[Q] KRAS G12D (Homo sapiens, UniProt P01116, G12D) / log10 IC50 / CCc1c(F)ccc2cc(O)cc(-c3ncc4c(N5CCCC6(CCS(=N)(=O)C6)C5)nc(OC[C@@]56CCCN5C[C@H](F)C6)nc4c3F)c12 (stereo partly shown) [Example 39] : value?
[A] 0.30

[Q] # returns recorded log10 IC50 (system: KRAS G12D (Homo sapiens, UniProt P01116, G12D)) for CCc1c(F)ccc2cc(O)cc(-c3ncc4c(N5CCC6(CC(O)C6)C5)nc(OC[C@@]56CCCN5C[C@H](F)C6)nc4c3F)c12 (stereo partly shown) [Example 37]
[A] 1.93
